Tested on: E.coli JT39
property: MIC (µg/mL)
Answers are plain numbers, in µg/mL.

Observe how each entry below is paired with its result.
| molecule | MIC, µg/mL |
| --- | --- |
| O=C(O)c1nnnn1CC=C1OC2CC(=O)N2C1C(=O)O (stereo not drawn) [Example 15] | 16 |
| O=C(O)C1C(=CCn2nnnc2-c2ccccc2)OC2CC(=O)N21 (stereo not drawn) [Example 27] | 125 |
| O=C(O)C1C(=CCn2ncnn2)OC2CC(=O)N21 (stereo not drawn) [Example 7, Lithium 9-tetrazol-2-yldoexyclavulanate] | 16 |
| O=C(O)C1C(=CCn2cnnn2)OC2CC(=O)N21 (stereo not drawn) [Example 18] | 16 |
| Cc1nnnn1CC=C1OC2CC(=O)N2C1C(=O)O (stereo not drawn) [Example 25] | 8 |

In the following, a different molecule is considered.
INPUT: Consider the molecule CCOC(=O)c1nnnn1CC=C1OC2CC(=O)N2C1C(=O)O (stereo not drawn) [Example 14] and give its measured MIC.
OUTPUT: 8
